study-system: T1, hIL-4Rα on cells (human, UniProt P24394 26-825)
T1 sequence: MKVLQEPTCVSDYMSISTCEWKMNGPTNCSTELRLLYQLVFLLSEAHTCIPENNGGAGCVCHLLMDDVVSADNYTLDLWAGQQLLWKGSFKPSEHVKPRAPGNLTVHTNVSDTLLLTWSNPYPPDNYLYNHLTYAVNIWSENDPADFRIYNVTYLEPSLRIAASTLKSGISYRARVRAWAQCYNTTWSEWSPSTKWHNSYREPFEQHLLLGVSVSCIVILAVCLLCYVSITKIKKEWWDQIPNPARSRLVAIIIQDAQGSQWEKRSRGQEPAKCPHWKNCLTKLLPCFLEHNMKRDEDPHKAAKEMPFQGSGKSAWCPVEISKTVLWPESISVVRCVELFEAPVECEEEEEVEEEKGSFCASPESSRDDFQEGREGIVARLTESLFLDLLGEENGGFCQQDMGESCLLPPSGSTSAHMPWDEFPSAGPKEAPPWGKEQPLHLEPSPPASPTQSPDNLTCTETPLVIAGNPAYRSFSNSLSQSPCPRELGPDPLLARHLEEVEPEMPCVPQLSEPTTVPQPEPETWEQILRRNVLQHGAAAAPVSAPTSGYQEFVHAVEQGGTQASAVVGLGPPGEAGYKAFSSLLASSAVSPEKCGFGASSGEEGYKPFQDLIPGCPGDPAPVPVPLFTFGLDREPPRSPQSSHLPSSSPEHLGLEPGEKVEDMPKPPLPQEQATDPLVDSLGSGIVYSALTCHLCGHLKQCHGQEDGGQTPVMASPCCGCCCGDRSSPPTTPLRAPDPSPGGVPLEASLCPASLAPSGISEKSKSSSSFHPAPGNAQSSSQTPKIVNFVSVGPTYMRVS
assay: cell-based or functional assay
measurement-name: Relative Inhibition of IL-13 induced TARC IC50

What Relative Inhibition of IL-13 induced TARC IC50 value was documented for this binder, Construct 41 (mAb478) (antibody, IgG4, V domains shown, VH/VL only) VH: EVQLVESGGGLEQPGGSLRLSCAGSGFTFRDFAMTWVRQAPGKGLEWVSSISGGGGNTYYADSVKGRFTISRDNSKNTLYLQMNSLRAEDTAVYYCAKDRVSITIRPRYYGLDVWGQGTTVTVSS VL: DIVMTQSPLSLPVTPGEPASISCTASQSLLYSIGYNYVDWYLQKSGQSPQLLIYLGNKRASGVPDRFSGSGSGTDFTLKISRVEAEDVGFYYCMQAYNSPYTFGQGTKLEIK ? 1.35 relative to dupilumab

I'd like to know its Relative Inhibition of IL-13 induced TARC IC50. The binder in question is Construct 2 (mAb411) (antibody, IgG4, V domains shown, VH/VL only) VH: EVQLVESGGGLEQPGGSLRLSCAGSGFTFRDFAMTWVRQAPGKGLEWVSSISGSGGNIYYADSVKGRFTISRDNSKNTLYLQMNSLRAEDTAVYYCAKDRLSKTIRPRYYGLDVWGQGTTVTVSS VL: DIVMTQSPLSLPVTPGEPASISCTASQSLLYSIGYNYVDWYLQKSGQSPQLLIYLGSKRASGVPDRFSGSGSGTDFTLKISRVEAEDVGFYYCMQALTTPYTFGQGTKLEIK 0.314 relative to dupilumab

Returns the measured Relative Inhibition of IL-13 induced TARC IC50 for the input binder. Input: Construct 19 (mAb427) (antibody, IgG4, V domains shown, VH/VL only) VH: EVQLVESGGGLEQPGGSLRLSCAGSGFTFRTYAMTWVRQAPGKGLEWVSSISGSGDNTYYADSVKGRFTISRDNSKNTLYLQMNSLRAEDTAVYYCAKDRVSITIRPRYYGLDVWGQGTTVTVSS VL: DIVMTQSPLSLPVTPGEPASISCTSSQSLLYSIGYNYVDWYLQKSGQSPQLLIYLGNKRASGVPDRFSGSGSGTDFTLKISRVEAEDVGFYYCMQALGSPYTFGQGTKLEIK 0.834 relative to dupilumab

I am curious: what Relative Inhibition of IL-13 induced TARC IC50 value has been reported for Construct 17 (mAb425) (antibody, IgG4, V domains shown, VH/VL only) VH: EVQLVESGGGLEQPGGSLRLSCAGSGFTFRDFAMTWVRQAPGKGLEWVSSISGSGSSTYYADSVKGRFTISRDNSKNTLYLQMNSLRAEDTAVYYCAKDRLSVTVRPRYYGLDVWGQGTTVTVSS VL: DIVMTQSPLSLPVTPGEPASISCTASQSLLYSIGYNYVDWYLQKSGQSPQLLIYLGSKRASGVPDRFSGSGSGTDFTLKISRVEAEDVGFYYCMQAYNSPYTFGQGTKLEIK ? 0.789 relative to dupilumab

What value of measured Relative Inhibition of IL-13 induced TARC IC50 is listed for Construct 30 (mAb439) (antibody, IgG4, V domains shown, VH/VL only) VH: EVQLVESGGGLEQPGGSLRLSCAGSGFTFRDYAMTWVRQAPGKGLEWVSSISGSGGNTYYADSVKGRFTISRDNSKNTLYLQMNSLRAEDTAVYYCAKDRLSITIRPRYYGLDVWGQGTTVTVSS VL: DIVMTQSPLSLPVTPGEPASISCRSSQSLLYSNRNNYLDWYLQKSGQSPQLLIYSASIRASGVPDRFSGSGSGTDFTLKISRVEAEDVGFYYCMQAFQAPYTFGQGTKLEIK ? 0.592 relative to dupilumab
